Each entry below carries its recorded stoichiometry N.
Biological target: the molecule itself
Experiment: native gel or EMSA; blue native PAGE (BN-PAGE) of the soluble cytoplasmic fraction and the culture supernatant of B. subtilis after 24 h of cultivation; non-reducing sample buffer, Coomassie blue; mass estimated within ±15%
Respond numerically, and do not add a unit to the figure.

Below, 5 proteins whose answers are already recorded.
protein	stoichiometry N
general stress protein (YceD) (natural protein, B. subtilis 168, UniProt P80875 1-193, looked up, general stress protein YceD, B. subtilis; gene amplified from B. subtilis 168 chromosomal DNA; Seen as monomer and as dimer; source: B. subtilis 1A751, overexpressed from a pMAR-derived plasmid; cytoplasmic fraction and culture supernatant, not purified) MTISLAKGQKVDLTKTNPGLSKVVVGLGWDTNKYDGGHDFDLDSSVFLLDAAGKCASPNDFIFYNQLEGGNGSVVHSGDNLTGAGEGDDENVKVNLSAVPANIDKISFVITIHDAEARSQNFGQVSNAFVRIVNEETNEELIRYDLAEDFSIETAIIAGELYRHNGEWKFSAIGSGYQGGLARIATDYGLQVG	2
glyceraldehyde 3-phosphate dehydrogenase (GapA) (enzyme, B. subtilis 168, UniProt P09124 1-335, looked up, glyceraldehyde 3-phosphate dehydrogenase (GapA), B. subtilis; gene amplified from B. subtilis 168 chromosomal DNA; source: B. subtilis 1A751, overexpressed from a pMAR-derived plasmid; cytoplasmic fraction and culture supernatant, not purified) MAVKVGINGFGRIGRNVFRAALNNPEVEVVAVNDLTDANMLAHLLQYDSVHGKLDAEVSVDGNNLVVNGKTIEVSAERDPAKLSWGKQGVEIVVESTGFFTKRADAAKHLEAGAKKVIISAPANEEDITIVMGVNEDKYDAANHDVISNASCTTNCLAPFAKVLNDKFGIKRGMMTTVHSYTNDQQILDLPHKDYRRARAAAENIIPTSTGAAKAVSLVLPELKGKLNGGAMRVPTPNVSLVDLVAELNQEVTAEEVNAALKEAAEGDLKGILGYSEEPLVSGDYNGNKNSSTIDALSTMVMEGSMVKVISWYDNESGYSNRVVDLAAYIAKKGL	3
arginase (RocF) (enzyme, B. subtilis 168, UniProt P39138 1-296, looked up, arginase (RocF), B. subtilis; gene amplified from B. subtilis 168 chromosomal DNA; source: B. subtilis 1A751, overexpressed from a pMAR-derived plasmid; cytoplasmic fraction and culture supernatant, not purified) MDKTISVIGMPMDLGQARRGVDMGPSAIRYAHLIERLSDMGYTVEDLGDIPINREKIKNDEELKNLNSVLAGNEKLAQKVNKVIEEKKFPLVLGGDHSIAIGTLAGTAKHYDNLGVIWYDAHGDLNTLETSPSGNIHGMPLAVSLGIGHESLVNLEGYAPKIKPENVVIIGARSLDEGERKYIKESGMKVYTMHEIDRLGMTKVIEETLDYLSACDGVHLSLDLDGLDPNDAPGVGTPVVGGISYRESHLAMEMLYDAGIITSAEFVEVNPILDHKNKTGKTAVELVESLLGKKLL	5
fructose 1,6-bisphosphate aldolase (FbaA) (enzyme, B. subtilis 168, UniProt P13243 1-285, looked up, fructose 1,6-bisphosphate aldolase (FbaA), B. subtilis; gene amplified from B. subtilis 168 chromosomal DNA; source: B. subtilis 1A751, overexpressed from a pMAR-derived plasmid; cytoplasmic fraction and culture supernatant, not purified) MPLVSMTEMLNTAKEKGYAVGQFNLNNLEFTQAILQAAEEEKSPVILGVSEGAGRYMGGFKTVVAMVKALMEEYKVTVPVAIHLDHGSSFESCAKAIHAGFTSVMIDASHHPFEENVATTAKVVELAHFHGVSVEAELGTVGGQEDDVIAEGVIYADPKECQELVERTGIDCLAPALGSVHGPYKGEPNLGFKEMEEIGKSTGLPLVLHGGTGIPTADIKKSISLGTAKINVNTENQISSAKAVRETLAAKPDEYDPRKYLGPAREAIKETVIGKMREFGSSNQA	5
superoxide dismutase (SodA) (enzyme, B. subtilis 168, UniProt P54375 1-202, looked up, superoxide dismutase (SodA), B. subtilis; gene amplified from B. subtilis 168 chromosomal DNA; source: B. subtilis 1A751, overexpressed from a pMAR-derived plasmid; cytoplasmic fraction and culture supernatant, not purified) MAYELPELPYAYDALEPHIDKETMTIHHTKHHNTYVTNLNKAVEGNTALANKSVEELVADLDSVPENIRTAVRNNGGGHANHKLFWTLLSPNGGGEPTGALAEEINSVFGSFDKFKEQFAAAAAGRFGSGWAWLVVNNGKLEITSTPNQDSPLSEGKTPILGLDVWEHAYYLNYQNRRPDYISAFWNVVNWDEVARLYSEAK	2

Next protein, stoichiometry N to be filled in.
Item under review: transaldolase (YwjH) (enzyme, B. subtilis 168, UniProt P19669 1-212, looked up, transaldolase (YwjH), B. subtilis; gene amplified from B. subtilis 168 chromosomal DNA; source: B. subtilis 1A751, overexpressed from a pMAR-derived plasmid; cytoplasmic fraction and culture supernatant, not purified) MLFFVDTANIDEIREANELGILAGVTTNPSLVAKEANVSFHDRLREITDVVKGSVSAEVISLKAEEMIEEGKELAKIAPNITVKIPMTSDGLKAVRALTDLGIKTNVTLIFNANQALLAARAGATYVSPFLGRLDDIGHNGLDLISEVKQIFDIHGLDTQIIAASIRHPQHVTEAALRGAHIGTMPLKVIHALTKHPLTDKGIEQFLADWNK . Reported stoichiometry N? 7
